// data source = patent US10308615B2

biological target: human vanin-1 (Homo sapiens (Human)); test: Human Vanin-1 Enzyme Assay 1; type: biochemical; conditions: 25 pM human vanin-1, 50 uM pantetheine 7-amino-4-trifluoromethylcoumarin, 30 min preincubation, 60 min
// classify(record): look up IC50 in ranges band 1 (below 40 nM), band 2 (40 nM to below 500 nM), band 3 (500 nM or more)

Reference set (2 entries):
O=C(c1cnc(OCc2ccc(F)cc2)nc1)c1cccc(C(F)(F)F)c1 [Example 46] | band 3
CC(Nc1ncc(C(=O)c2cccc(C#N)c2)cn1)c1ccc(C(N)=O)cc1 (single isomer, unassigned; (-)) [Example 9] | band 1

QUERY: Please let me know in which category the item NC(=O)c1ccc(CNc2ncc(C(=O)c3cccc(C(F)(F)F)c3)cn2)cn1 [Example 69] belongs.
RESULT: band 1

QUERY: Please let me know in which category the item CS(=O)(=O)c1cccc(C(=O)c2cnc(NCc3ccc(C#N)cc3)nc2)c1 [Example 126] belongs.
RESULT: band 1

QUERY: Please let me know in which category the item O=C(c1cnc(NCc2cccnc2)nc1)c1cccs1 [Example 100] belongs.
RESULT: band 2

QUERY: Please let me know in which category the item N#Cc1cccc(C(=O)c2ccc(NCc3cncnc3)nc2)c1 [Example 140] belongs.
RESULT: band 2

QUERY: Please let me know in which category the item CC(C)(Nc1ncc(C(=O)c2cccc(C#N)c2)cn1)c1ccccc1 [Example 3] belongs.
RESULT: band 1

QUERY: Please let me know in which category the item N#Cc1cc(F)cc(C(=O)c2cnc(NCc3cncnc3)nc2)c1 [Example 130] belongs.
RESULT: band 2

QUERY: Please let me know in which category the item N#Cc1cccc(CNc2ncc(C(=O)c3ccccc3)cn2)c1 [Example 113] belongs.
RESULT: band 3

QUERY: Please let me know in which category the item COc1ccc(CNc2ncc(C(=O)c3cccc(C#N)c3)cn2)cc1 [Example 29] belongs.
RESULT: band 2

QUERY: Please let me know in which category the item COc1cccc(C(=O)c2cnc(NC3(c4cncnc4)CC3)nc2)c1 [Example 18] belongs.
RESULT: band 1

---

molecular target: human vanin-1 (Homo sapiens (Human)); assay: Human Vanin-1 Enzyme Assay 3; assay type: biochemical; conditions: 2 nM human vanin-1, 10 uM substrate, 15 min
Rule for this label: 1 means IC50 is less than 800 nM; -1 means IC50 is at least 800 nM.

Reference set (5 entries):
O=C(c1cnc(NCc2ccnnc2)nc1)c1cccc(C(F)(F)F)c1 [Example 122] | 1
Cc1cccc(C(=O)c2cnc(NCc3ccccn3)nc2)c1 [Example 38] | 1
O=C(c1ccc(Cl)cc1)c1cnc(NCc2ccc(Cl)cc2)nc1 [Example 57] | -1
O=C(c1cnc(NCc2cccnc2)nc1)c1ccc(F)c(F)c1 [Example 22] | 1
N#Cc1cccc(C(=O)c2cnc(NCc3ccnnc3)nc2)c1 [Example 112] | -1

QUERY: Take the molecule N#Cc1cccc(C(=O)c2cnc(NCc3ccc(F)cc3)nc2)c1 [Example 31] and say whether its IC50 is less than 800 nM.
RESULT: 1

QUERY: Take the molecule O=C(O)c1ccc(CNc2ncc(C(=O)c3ccc(F)c(F)c3)cn2)cc1 [Example 49] and say whether its IC50 is less than 800 nM.
RESULT: 1

---

The molecules listed here are annotated with their pIC50.
target: human vanin-1 (Homo sapiens (Human), UniProt O95497); assay: Human Vanin-1 Enzyme Assay 1; format: biochemical; conditions: 25 pM human vanin-1, 50 uM pantetheine 7-amino-4-trifluoromethylcoumarin, 30 min preincubation, 60 min
Sequence (O95497 22-491): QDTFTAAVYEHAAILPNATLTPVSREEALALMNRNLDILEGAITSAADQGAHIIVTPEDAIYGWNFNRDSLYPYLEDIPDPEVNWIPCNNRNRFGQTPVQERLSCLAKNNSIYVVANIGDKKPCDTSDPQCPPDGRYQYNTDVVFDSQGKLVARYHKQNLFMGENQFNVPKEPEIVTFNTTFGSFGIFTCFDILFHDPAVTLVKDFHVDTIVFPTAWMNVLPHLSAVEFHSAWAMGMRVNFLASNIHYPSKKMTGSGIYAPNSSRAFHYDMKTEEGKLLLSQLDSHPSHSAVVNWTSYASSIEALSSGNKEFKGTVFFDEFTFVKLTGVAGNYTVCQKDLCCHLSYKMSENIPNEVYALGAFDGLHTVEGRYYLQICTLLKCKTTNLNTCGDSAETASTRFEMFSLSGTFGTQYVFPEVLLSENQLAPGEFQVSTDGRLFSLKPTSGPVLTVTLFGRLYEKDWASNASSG
# pIC50: negative log10 of molar concentration; output just the value

O=C(c1cnc(NCc2cccnc2)nc1)c1cc(F)cc(C(F)(F)F)c1 | 7.42
N#Cc1cccc(CNc2ncc(C(=O)c3cccc(Cl)c3)cn2)c1 | 5.38
O=C(c1ccccc1)c1cnc(NCc2cnccn2)nc1 | 6.38

Now for a further molecule.
QUERY: Hello, please tell me recorded pIC50 for this one: N#Cc1cccc(C(=O)c2cnc(NCc3ccc(N)nc3)nc2)c1
RESULT: 7.43
